The origin of these recorded values is patent US20060069132A1.

Tested on: barnyardgrass
ASSAY REMARKS: Test A pre-/postemergence herbicide test
Assay type: in vivo, Echinochloa crus-galli
CONDITION SUMMARY: Postemergence, 2000 g ai/ha; 0 to 100 scale, 0 no effect, 100 complete control
Classify: yes when Plant response rating, Barnyardgrass is strictly less than 80; no when Plant response rating, Barnyardgrass is not.

> print(dat)
                           molecular.string  label.value
1  CC(=NO)c1cc(NC(=O)c2cc(C(C)(C)C)nn2C)ccc1F           no
2  CCOC(=O)c1cncc(NC(=O)c2cc(C(C)(C)C)nn2CC)c1          yes
3  C=Cn1nc(C(C)(C)C)cc1C(=O)Nc1cccc(C(C)=O)c1          yes
4  CCn1nc(C(C)(C)C)cc1C(=O)Nc1cccc(C(=O)OCC(F)(F)F)c1          yes
5  CC(=NO)c1cccc(NC(=O)c2sc(C(C)(C)C)nc2C)c1          yes
6  CCn1nc(C(C)(C)C)cc1C(=O)Nc1cc(C(=O)N(C)C)c(F)cc1F          yes
7  CCOC(=O)c1cccc(NC(=O)c2cc(C(C)(C)C)nn2C)n1           no
8  Cn1nc(C(C)(C)C)cc1C(=O)Nc1cccc2c1CCC2=NO          yes
9  CCn1nc(C(C)(C)C)cc1C(=O)Nc1nc(OC)cc(OC)n1          yes

====

Test system: giant foxtail
ASSAY REMARKS: Test C pre-/postemergence herbicide test
Format: in vivo, Setaria faberi
CONDITION SUMMARY: 62 g ai/ha; preemergence
From the text: […]
Each record here notes measured Plant response rating (0 = no effect, 100 = complete control), Foxtail, Giant.
MEASUREMENT LABEL: Plant response rating (0 = no effect, 100 = complete control), Foxtail, Giant

> print(dat)
                                   compound  assay.result
1  C=Cn1nc(C(C)(C)C)cc1C(=O)Nc1cccc(C(C)=NO)c1 [Compound 114]            20
2  CCn1nc(C(C)(C)C)cc1C(=O)Nc1cccc2c1CCN(C1CC1)C2=O [Compound 64]             0
3  C=Cn1nc(C(C)(C)C)cc1C(=O)Nc1cccc(C(=O)NCC)c1 [Compound 33]            20
4  CCn1nc(C(C)(C)C)cc1C(=O)Nc1cccc(SC)c1 [Compound 131]            20
5  CCOC(=O)c1cc(NC(=O)c2cc(C(C)(C)C)nn2CC)ccc1OC [Compound 96]            70
6  CCOC(=O)c1cccc(NC(=O)c2cc(C(C)(C)C)nn2CC)c1C [Compound 88]             0

====

Test system: velvetleaf
ASSAY REMARKS: Test B pre-/postemergence herbicide test
Assay type: in vivo, Abutilon theophrasti
CONDITION SUMMARY: 125 g ai/ha; 0 is no effect, 100 is complete control; preemergence
MEASUREMENT LABEL: Plant response rating (0 to 100 scale), Velvetleaf

> print(dat)
                           molecular.string  assay.result
1  CCc1nn(C(C)(C)CC)nc1C(=O)Nc1cc(C(=O)N(C)C)ccc1F             0
2  CCc1nn(C2CCCC2)nc1C(=O)Nc1cccc(C(=O)N2CC=CC2)c1             0
3  Cc1nn(C(C)C)nc1C(=O)Nc1cccc(C(=O)N2CC=CC2)c1            10
4  CCNC(=O)c1cccc(NC(=O)c2nn(C(C)(C)C)nc2C)c1            70
5  CCOC(=O)c1cncc(NC(=O)c2nn(C(C)(C)C)nc2C)c1             0
6  Cc1nn(C(C)C)nc1C(=O)Nc1cc(C(=O)N(C)C)ccc1F             0
7  CCN(CC)C(=O)c1cncc(NC(=O)c2nn(C(C)(C)C)nc2C)c1             0
8  CCc1nn(C(C)C)nc1C(=S)Nc1cccc(C(=S)N(C)C)c1            30
9  CCOC(=O)c1cccc(NC(=O)c2nn(C(C)(C)C)nc2Br)c1             0
